The values you see were collected from patent US20220177459A1.

- Tested on: 22RV1 cells
- testName: Inhibition of proliferation of other prostate cancer cells: 22RV1
- Format: cell-based
- conditionInfo: Homo sapiens, same method as LNCaP/AR
Would you mind telling me the reported log10 of IC50 of each entry?
In plain terms, each number is the log10 of measured IC50 in µM.

Please review the entries below; each comes with its answer.
molecule | log10 of IC50
CCN(c1ccc(-n2ccnn2)c(Br)c1)c1cc(-c2c(C)noc2C)ccc1C [Compound 45] | 0.89
CCN(c1ccc(F)c(-n2ccnc2)c1)c1cc(-c2c(C)noc2C)ccc1C [Compound 83] | 0.72
CCN(c1ccc(-n2ccnc2C)cc1)c1cc(-c2c(C)noc2C)ccc1C [Compound 27] | 0.58
CCN(c1ccc(-n2ccnn2)cc1)c1cc(-c2c(C)noc2C)ccc1C [Compound 33] | 0.38
CCN(c1ccc(C(N)=O)cc1)c1cc(-c2c(C)noc2C)ccc1C [Compound 123] | 0.75
CCN(c1ccc(-c2cn[nH]c2C)cc1)c1cc(-c2c(C)noc2C)ccc1C [Compound 126] | 0.50

Quick batch: log10 of IC50 for everything below.
1. CCN(c1ccc(-n2ccnc2)c(C(F)(F)F)c1)c1cc(-c2c(C)noc2C)ccc1C [Compound 32]
2. CCN(c1ccc(Br)cc1)c1cc(-c2c(C)noc2C)ccc1C [Compound 116]
3. CCN(c1ccc(-n2cnc(C)c2)cc1)c1cc(-c2c(C)noc2C)ccc1C [Compound 26]

[0.54, -0.20, 0.61]
